- Target of assay: Beta catenin-BCL9 (Mus musculus, UniProt Q02248+Q9D219)
- Sequence (Q02248 whole entry): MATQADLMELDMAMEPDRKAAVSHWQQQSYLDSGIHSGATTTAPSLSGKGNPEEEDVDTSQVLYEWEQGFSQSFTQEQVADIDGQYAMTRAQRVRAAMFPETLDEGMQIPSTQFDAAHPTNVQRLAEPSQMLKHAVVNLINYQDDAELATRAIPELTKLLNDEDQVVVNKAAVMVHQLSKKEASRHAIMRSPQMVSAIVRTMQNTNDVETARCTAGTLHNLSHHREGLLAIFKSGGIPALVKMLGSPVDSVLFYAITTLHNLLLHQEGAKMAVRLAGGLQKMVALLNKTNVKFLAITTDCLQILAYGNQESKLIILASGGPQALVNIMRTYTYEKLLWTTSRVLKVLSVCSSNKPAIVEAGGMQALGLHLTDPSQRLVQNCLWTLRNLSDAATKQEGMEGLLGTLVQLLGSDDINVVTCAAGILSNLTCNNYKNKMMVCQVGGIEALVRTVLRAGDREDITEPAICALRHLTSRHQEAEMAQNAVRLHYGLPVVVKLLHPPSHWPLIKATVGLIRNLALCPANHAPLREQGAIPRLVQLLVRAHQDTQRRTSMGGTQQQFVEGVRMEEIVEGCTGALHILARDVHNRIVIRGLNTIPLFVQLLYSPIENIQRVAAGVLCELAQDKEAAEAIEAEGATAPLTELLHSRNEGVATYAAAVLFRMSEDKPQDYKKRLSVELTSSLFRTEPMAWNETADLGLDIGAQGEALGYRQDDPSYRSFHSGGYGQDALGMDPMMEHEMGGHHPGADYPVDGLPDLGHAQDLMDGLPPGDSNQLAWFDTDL
- Sequence (Q9D219 whole entry): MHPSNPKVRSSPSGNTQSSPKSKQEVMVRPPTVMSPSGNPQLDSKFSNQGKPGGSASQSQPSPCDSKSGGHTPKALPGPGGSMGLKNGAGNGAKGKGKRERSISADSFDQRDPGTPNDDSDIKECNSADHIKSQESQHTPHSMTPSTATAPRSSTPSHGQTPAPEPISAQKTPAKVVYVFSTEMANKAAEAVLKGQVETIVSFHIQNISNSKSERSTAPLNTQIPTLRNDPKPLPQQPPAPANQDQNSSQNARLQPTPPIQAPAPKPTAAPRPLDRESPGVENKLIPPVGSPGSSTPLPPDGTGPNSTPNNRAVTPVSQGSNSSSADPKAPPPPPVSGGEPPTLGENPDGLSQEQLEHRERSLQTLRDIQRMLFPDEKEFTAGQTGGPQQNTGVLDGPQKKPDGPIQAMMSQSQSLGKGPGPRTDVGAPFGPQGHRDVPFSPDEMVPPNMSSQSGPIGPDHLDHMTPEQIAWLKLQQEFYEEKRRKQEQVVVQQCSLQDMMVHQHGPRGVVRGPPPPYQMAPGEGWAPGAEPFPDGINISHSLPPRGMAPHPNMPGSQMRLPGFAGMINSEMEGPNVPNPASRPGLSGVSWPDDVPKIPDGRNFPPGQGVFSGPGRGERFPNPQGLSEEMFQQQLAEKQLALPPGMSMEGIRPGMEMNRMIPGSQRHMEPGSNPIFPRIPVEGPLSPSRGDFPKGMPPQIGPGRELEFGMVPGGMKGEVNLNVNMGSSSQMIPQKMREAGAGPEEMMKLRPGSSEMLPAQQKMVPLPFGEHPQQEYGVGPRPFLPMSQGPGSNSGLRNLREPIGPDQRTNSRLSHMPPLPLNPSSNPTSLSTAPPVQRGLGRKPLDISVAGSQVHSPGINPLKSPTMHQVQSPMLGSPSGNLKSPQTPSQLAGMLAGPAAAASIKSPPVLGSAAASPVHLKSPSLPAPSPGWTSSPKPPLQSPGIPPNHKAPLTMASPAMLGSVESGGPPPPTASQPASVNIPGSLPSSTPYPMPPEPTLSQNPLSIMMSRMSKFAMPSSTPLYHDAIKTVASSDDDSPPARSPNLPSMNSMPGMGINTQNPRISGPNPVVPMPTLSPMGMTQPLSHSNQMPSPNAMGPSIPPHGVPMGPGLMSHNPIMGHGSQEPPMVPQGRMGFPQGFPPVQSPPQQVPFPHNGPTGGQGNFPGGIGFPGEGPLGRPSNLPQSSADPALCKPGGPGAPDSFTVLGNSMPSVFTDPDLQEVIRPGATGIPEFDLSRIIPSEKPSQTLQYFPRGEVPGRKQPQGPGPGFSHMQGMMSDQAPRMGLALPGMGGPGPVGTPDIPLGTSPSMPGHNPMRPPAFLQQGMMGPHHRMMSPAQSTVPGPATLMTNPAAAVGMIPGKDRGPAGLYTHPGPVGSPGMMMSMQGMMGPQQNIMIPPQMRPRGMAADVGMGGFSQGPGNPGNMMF
- Experiment summary: Inhibition of beta-catenin/BCL9 protein-protein interaction in Wnt-dependent BCL9 knockdown mouse CT26 cells assessed as reduction in Axin2 expression level by qRT-PCR assay
- Assay type: cell-based
Observable: IC50 (µM)
Answer format: numeric, µM implied, no suffix.

For the molecule CC(C)c1ccc(-c2cccc(S(=O)(=O)N3CCCC(c4cccc(OC(C)(C)C(=O)NS(=O)(=O)c5ccc(C(F)(F)F)cc5)c4)C3)c2)cc1 (stereo unspecified) , give its reported IC50.
51.6

###

# half-life values compiled below
- Experiment summary: Microsomal stability in mouse liver microsomes assessed as half life at […] and measured upto 60 mins by LC-MS/MS analysis
- Assay type: ADME, Microsome
Answer format: numeric, min implied, no suffix.

{"columns": ["Compound", "Observable", "Unit spec", "Observed value"],
 "data": [
  ["CC(C)c1ccc(-c2cccc(S(=O)(=O)N3CCC[C@H](c4cccc(OC(C)(C)C(=O)NS(=O)(=O)c5ccc(C(F)(F)F)cc5)c4)C3)c2)cc1", "half-life", "min", 37.7],
  ["CC(C)c1ccc(-c2cccc(S(=O)(=O)N3CCC[C@@H](c4cccc(OC(C)(C)C(=O)NS(=O)(=O)c5ccc(C(F)(F)F)cc5)c4)C3)c2)cc1", "half-life", "min", 14.8],
  ["CC(C)c1ccc(-c2cccc(S(=O)(=O)N3CCCC(c4cccc(OC(C)(C)C(=O)NS(=O)(=O)c5ccccc5)c4)C3)c2)cc1 (stereo not given)", "half-life", "min", 19.8],
  ["CC(C)c1ccc(-c2cccc(S(=O)(=O)N3CCCC(c4cccc(OC(C)(C)C(=O)NS(=O)(=O)c5cccs5)c4)C3)c2)cc1 (stereo not given)", "half-life", "min", 5.75]
]}

# next compound below
For the compound CC(C)c1ccc(-c2cccc(S(=O)(=O)N3CCCC(c4cccc(OC(C)(C)C(=O)NS(=O)(=O)c5ccc(C(F)(F)F)cc5)c4)C3)c2)cc1 (stereo not given) , give its reported half-life.
20.9
